Tested on: Bacillus subtilis
Experiment: Antibacterial activity against Bacillus subtilis MTCC 441 at 2000 ug/ml after 24 hrs by agar-well diffusion method
Type: functional
Conditions: MTCC 441, 24 h, read-out: DIZ
Values of zone of inhibition at 2000 µg/mL greater than or equal to 4 mm map to MET; values below map to NOT MET.

Answered examples (5):
>  <molecule>
COc1c(O)cc2c(c1O)[C@@H]1O[C@H](CO)[C@@H](O)[C@H](O)[C@H]1OC2=O [BERGENIN]

>  <category>
NOT MET

$$$$
>  <molecule>
COc1c(OC(C)=O)cc2c(c1OC(C)=O)[C@@H]1O[C@H](COC(C)=O)[C@@H](OC(C)=O)[C@H](OC(C)=O)[C@H]1OC2=O [BERGENIN PENTAACETATE]

>  <category>
MET

$$$$
>  <molecule>
COc1c(O)cc2c(c1OC(C)=O)[C@@H]1O[C@H](COC(C)=O)[C@@H](OC(C)=O)[C@H](OC(C)=O)[C@H]1OC2=O

>  <category>
MET

$$$$
>  <molecule>
CCCCCC(=O)Oc1cc2c(c(OC(C)=O)c1OC)[C@@H]1O[C@H](COC(C)=O)[C@@H](OC(C)=O)[C@H](OC(C)=O)[C@H]1OC2=O

>  <category>
MET

$$$$
>  <molecule>
COc1c(OC(=O)c2ccccc2)cc2c(c1OC(C)=O)[C@@H]1O[C@H](COC(C)=O)[C@@H](OC(C)=O)[C@H](OC(C)=O)[C@H]1OC2=O

>  <category>
MET

$$$$

From here, focus on the item given below.
Can `CCCCCCCCCCCCCC(=O)Oc1cc2c(c(OC(C)=O)c1OC)[C@@H]1O[C@H](COC(C)=O)[C@@H](OC(C)=O)[C@H](OC(C)=O)[C@H]1OC2=O` be said to have zone of inhibition at 2000 µg/mL at or above 4 mm?
NOT MET

----------
Tested on: Escherichia coli
Experiment: Antibacterial activity against Escherichia coli MTCC 739 at 2000 ug/ml after 24 hrs by agar-well diffusion method
Type: functional
Conditions: MTCC 739, 24 h, read-out: DIZ
property: zone of inhibition at 2000 µg/mL (mm)
# number only, unit mm dropped from output

>  <compound>
CCCCCCCCCC(=O)Oc1cc2c(c(OC(C)=O)c1OC)[C@@H]1O[C@H](COC(C)=O)[C@@H](OC(C)=O)[C@H](OC(C)=O)[C@H]1OC2=O

>  <tested.system>
Escherichia coli

>  <zone of inhibition at 2000 µg/mL / mm>
6.2

$$$$
>  <compound>
CCCCCCCCCCCCCC(=O)Oc1cc2c(c(OC(C)=O)c1OC)[C@@H]1O[C@H](COC(C)=O)[C@@H](OC(C)=O)[C@H](OC(C)=O)[C@H]1OC2=O

>  <tested.system>
Escherichia coli

>  <zone of inhibition at 2000 µg/mL / mm>
5.4

$$$$
>  <compound>
CCCCCC(=O)Oc1cc2c(c(OC(C)=O)c1OC)[C@@H]1O[C@H](COC(C)=O)[C@@H](OC(C)=O)[C@H](OC(C)=O)[C@H]1OC2=O

>  <tested.system>
Escherichia coli

>  <zone of inhibition at 2000 µg/mL / mm>
21.4

$$$$
>  <compound>
COc1c(O)cc2c(c1OC(C)=O)[C@@H]1O[C@H](COC(C)=O)[C@@H](OC(C)=O)[C@H](OC(C)=O)[C@H]1OC2=O

>  <tested.system>
Escherichia coli

>  <zone of inhibition at 2000 µg/mL / mm>
14.1

$$$$
>  <compound>
COc1c(OC(=O)c2ccccc2)cc2c(c1OC(C)=O)[C@@H]1O[C@H](COC(C)=O)[C@@H](OC(C)=O)[C@H](OC(C)=O)[C@H]1OC2=O

>  <tested.system>
Escherichia coli

>  <zone of inhibition at 2000 µg/mL / mm>
9.3

$$$$
>  <compound>
COc1c(OC(C)=O)cc2c(c1OC(C)=O)[C@@H]1O[C@H](COC(C)=O)[C@@H](OC(C)=O)[C@H](OC(C)=O)[C@H]1OC2=O [BERGENIN PENTAACETATE]

>  <tested.system>
Escherichia coli

>  <zone of inhibition at 2000 µg/mL / mm>
16.2

$$$$

Proceeding to the next compound to report its zone of inhibition at 2000 µg/mL.
Tell me zone of inhibition at 2000 µg/mL of `COc1c(O)cc2c(c1O)[C@@H]1O[C@H](CO)[C@@H](O)[C@H](O)[C@H]1OC2=O` when tested on Escherichia coli.
3.3
